Attribution: the supplement of paper PMC10567573

B1: SMOC2 (parent)
chain: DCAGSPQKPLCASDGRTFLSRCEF

- Variants of: B1
- protocol_description: protein stability index of a GFP-peptide fusion (GPS, HEK-293T) (PSI 1-6); higher = more stable;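 note: lentivirally expressed fusions sorted by FACS into six bins by GFP to DsRed ratio, PSI derived from sequencing read proportions per bin multiplied by bin number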
- run_conditions: c terminus: a fixed tail appended
readout_kind: protein stability index

D1H	2.02
T17D	3.12
C22H	3.68
S20A	2.85
F18L	4.12
A3Y	2.02
C11N	2.67
L10K	3.1
A3D	2.95
E23C	2.53
F18A	3.52
S5R	2.66
R16I	2.4
E23M	2.1
F24W	2.02
S13A	3.39
L19S	3.06
R16T	3.39
S20N	3.64
P9T	2.69
G15S	2.5
T17R	2.47
P9A	3.42
L19I	2.07
Q7L	2.11
A3Q	2.82
L10E	3.84
E23Y	1.84
R16Y	2.33
P9F	1.99
A12W	1.51
R21G	4.57
L10P	2.93
